applied conditions: in isopropanol, 278.15 K
observable: solubility (mole fraction)

{"mol smiles": "CN(C)[C@@H]1C(=O)C(C(N)=O)=C(O)[C@@]2(O)C(=O)C3=C(O)c4c(O)cccc4C[C@H]3C[C@@H]12", "observable": "solubility (mole fraction)", "assay value": "4.02e-05"}

====

applied conditions: in methanol, 278.15 K
observable: solubility (mole fraction)

{"mol smiles": "CN(C)[C@@H]1C(=O)C(C(N)=O)=C(O)[C@@]2(O)C(=O)C3=C(O)c4c(O)cccc4C[C@H]3C[C@@H]12", "assay value": 0.000166}

====

applied conditions: in n-octanol, 303.15 K

{"mol smiles": "CN(C)[C@@H]1C(=O)C(C(N)=O)=C(O)[C@@]2(O)C(=O)C3=C(O)c4c(O)cccc4C[C@H]3C[C@@H]12", "solubility (mole fraction)": "5.71e-05"}

====

applied conditions: in n-propanol, 288.15 K

{"mol smiles": "CN(C)[C@@H]1C(=O)C(C(N)=O)=C(O)[C@@]2(O)C(=O)C3=C(O)c4c(O)cccc4C[C@H]3C[C@@H]12", "solubility (mole fraction)": 0.000112}

====

applied conditions: in ethanol, 293.15 K

{"mol smiles": "CN(C)[C@@H]1C(=O)C(C(N)=O)=C(O)[C@@]2(O)C(=O)C3=C(O)c4c(O)cccc4C[C@H]3C[C@@H]12", "solubility (mole fraction)": 0.000172}

====

applied conditions: in n-hexane, 288.15 K

{"mol smiles": "CN(C)[C@@H]1C(=O)C(C(N)=O)=C(O)[C@@]2(O)C(=O)C3=C(O)c4c(O)cccc4C[C@H]3C[C@@H]12", "solubility (mole fraction)": "4.51e-05"}

====

applied conditions: in isopropanol, 293.15 K

{"mol smiles": "CN(C)[C@@H]1C(=O)C(C(N)=O)=C(O)[C@@]2(O)C(=O)C3=C(O)c4c(O)cccc4C[C@H]3C[C@@H]12", "solubility (mole fraction)": "6.18e-05"}

====

applied conditions: in n-propanol, 278.15 K

{"mol smiles": "CN(C)[C@@H]1C(=O)C(C(N)=O)=C(O)[C@@]2(O)C(=O)C3=C(O)c4c(O)cccc4C[C@H]3C[C@@H]12", "solubility (mole fraction)": 0.000101}

====

applied conditions: in n-hexane, 283.15 K

{"mol smiles": "CN(C)[C@@H]1C(=O)C(C(N)=O)=C(O)[C@@]2(O)C(=O)C3=C(O)c4c(O)cccc4C[C@H]3C[C@@H]12", "solubility (mole fraction)": "4.07e-05"}

====

applied conditions: in cyclohexane, 278.15 K
observable: solubility (mole fraction)

{"mol smiles": "CN(C)[C@@H]1C(=O)C(C(N)=O)=C(O)[C@@]2(O)C(=O)C3=C(O)c4c(O)cccc4C[C@H]3C[C@@H]12", "observable": "solubility (mole fraction)", "assay value": "7.64e-06"}

====

applied conditions: in n-hexane, 308.15 K

{"mol smiles": "CN(C)[C@@H]1C(=O)C(C(N)=O)=C(O)[C@@]2(O)C(=O)C3=C(O)c4c(O)cccc4C[C@H]3C[C@@H]12", "solubility (mole fraction)": "7.17e-05"}

====

applied conditions: in ethyl acetate, 293.15 K

{"mol smiles": "CN(C)[C@@H]1C(=O)C(C(N)=O)=C(O)[C@@]2(O)C(=O)C3=C(O)c4c(O)cccc4C[C@H]3C[C@@H]12", "solubility (mole fraction)": 0.000551}

====

applied conditions: in 1,4-dioxane, 313.15 K
observable: solubility (mole fraction)

{"mol smiles": "CN(C)[C@@H]1C(=O)C(C(N)=O)=C(O)[C@@]2(O)C(=O)C3=C(O)c4c(O)cccc4C[C@H]3C[C@@H]12", "observable": "solubility (mole fraction)", "assay value": 0.00294}

====

applied conditions: in ethyl acetate, 313.15 K
observable: solubility (mole fraction)

{"mol smiles": "CN(C)[C@@H]1C(=O)C(C(N)=O)=C(O)[C@@]2(O)C(=O)C3=C(O)c4c(O)cccc4C[C@H]3C[C@@H]12", "observable": "solubility (mole fraction)", "assay value": 0.00103}

====

applied conditions: in methanol, 293.15 K

{"mol smiles": "CN(C)[C@@H]1C(=O)C(C(N)=O)=C(O)[C@@]2(O)C(=O)C3=C(O)c4c(O)cccc4C[C@H]3C[C@@H]12", "solubility (mole fraction)": 0.000218}

====

applied conditions: in isobutanol, 308.15 K
observable: solubility (mole fraction)

{"mol smiles": "CN(C)[C@@H]1C(=O)C(C(N)=O)=C(O)[C@@]2(O)C(=O)C3=C(O)c4c(O)cccc4C[C@H]3C[C@@H]12", "assay value": "8.14e-05"}

====

applied conditions: in isopropanol, 313.15 K
observable: solubility (mole fraction)

{"mol smiles": "CN(C)[C@@H]1C(=O)C(C(N)=O)=C(O)[C@@]2(O)C(=O)C3=C(O)c4c(O)cccc4C[C@H]3C[C@@H]12", "assay value": 0.000105}

====

applied conditions: in 1,4-dioxane, 318.15 K

{"mol smiles": "CN(C)[C@@H]1C(=O)C(C(N)=O)=C(O)[C@@]2(O)C(=O)C3=C(O)c4c(O)cccc4C[C@H]3C[C@@H]12", "solubility (mole fraction)": 0.00336}

====

applied conditions: in n-octanol, 318.15 K
observable: solubility (mole fraction)

{"mol smiles": "CN(C)[C@@H]1C(=O)C(C(N)=O)=C(O)[C@@]2(O)C(=O)C3=C(O)c4c(O)cccc4C[C@H]3C[C@@H]12", "assay value": "8.04e-05"}

====

applied conditions: in n-octanol, 298.15 K
observable: solubility (mole fraction)

{"mol smiles": "CN(C)[C@@H]1C(=O)C(C(N)=O)=C(O)[C@@]2(O)C(=O)C3=C(O)c4c(O)cccc4C[C@H]3C[C@@H]12", "observable": "solubility (mole fraction)", "assay value": "5.08e-05"}

====

applied conditions: in n-octanol, 313.15 K
observable: solubility (mole fraction)

{"mol smiles": "CN(C)[C@@H]1C(=O)C(C(N)=O)=C(O)[C@@]2(O)C(=O)C3=C(O)c4c(O)cccc4C[C@H]3C[C@@H]12", "observable": "solubility (mole fraction)", "assay value": "7.21e-05"}

====

applied conditions: in methanol, 298.15 K
observable: solubility (mole fraction)

{"mol smiles": "CN(C)[C@@H]1C(=O)C(C(N)=O)=C(O)[C@@]2(O)C(=O)C3=C(O)c4c(O)cccc4C[C@H]3C[C@@H]12", "observable": "solubility (mole fraction)", "assay value": 0.000237}

====

applied conditions: in n-hexane, 313.15 K
observable: solubility (mole fraction)

{"mol smiles": "CN(C)[C@@H]1C(=O)C(C(N)=O)=C(O)[C@@]2(O)C(=O)C3=C(O)c4c(O)cccc4C[C@H]3C[C@@H]12", "assay value": "8.08e-05"}

====

applied conditions: in n-octanol, 288.15 K

{"mol smiles": "CN(C)[C@@H]1C(=O)C(C(N)=O)=C(O)[C@@]2(O)C(=O)C3=C(O)c4c(O)cccc4C[C@H]3C[C@@H]12", "solubility (mole fraction)": "3.99e-05"}

====

applied conditions: in methanol, 283.15 K

{"mol smiles": "CN(C)[C@@H]1C(=O)C(C(N)=O)=C(O)[C@@]2(O)C(=O)C3=C(O)c4c(O)cccc4C[C@H]3C[C@@H]12", "solubility (mole fraction)": 0.000183}

====

applied conditions: in n-butanol, 318.15 K
observable: solubility (mole fraction)

{"mol smiles": "CN(C)[C@@H]1C(=O)C(C(N)=O)=C(O)[C@@]2(O)C(=O)C3=C(O)c4c(O)cccc4C[C@H]3C[C@@H]12", "assay value": 0.000135}

====

applied conditions: in acetonitrile, 303.15 K

{"mol smiles": "CN(C)[C@@H]1C(=O)C(C(N)=O)=C(O)[C@@]2(O)C(=O)C3=C(O)c4c(O)cccc4C[C@H]3C[C@@H]12", "solubility (mole fraction)": 0.000188}

====

applied conditions: in isobutanol, 318.15 K
observable: solubility (mole fraction)

{"mol smiles": "CN(C)[C@@H]1C(=O)C(C(N)=O)=C(O)[C@@]2(O)C(=O)C3=C(O)c4c(O)cccc4C[C@H]3C[C@@H]12", "observable": "solubility (mole fraction)", "assay value": 0.000103}

====

applied conditions: in isobutanol, 298.15 K

{"mol smiles": "CN(C)[C@@H]1C(=O)C(C(N)=O)=C(O)[C@@]2(O)C(=O)C3=C(O)c4c(O)cccc4C[C@H]3C[C@@H]12", "solubility (mole fraction)": "6.3e-05"}

====

applied conditions: in n-butanol, 283.15 K
observable: solubility (mole fraction)

{"mol smiles": "CN(C)[C@@H]1C(=O)C(C(N)=O)=C(O)[C@@]2(O)C(=O)C3=C(O)c4c(O)cccc4C[C@H]3C[C@@H]12", "assay value": "5.56e-05"}

====

applied conditions: in 1,4-dioxane, 298.15 K

{"mol smiles": "CN(C)[C@@H]1C(=O)C(C(N)=O)=C(O)[C@@]2(O)C(=O)C3=C(O)c4c(O)cccc4C[C@H]3C[C@@H]12", "solubility (mole fraction)": 0.00188}
